Test system: Escherichia coli TOP10;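 further: peptides expressed intracellularly from a pBAD plasmid library in pooled LB shake-flask culture, induced with 0.3% L-arabinose, DNA abundance read by NGS, three biological replicates, DESeq2 with apeglm shrinkage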
Experiment: shrunken log2 fold change of peptide-encoding DNA abundance (4.5 h post-induction vs induction); higher = less antimicrobial activity (less host growth inhibition)
Conditions: time post-induction: 4.5 h; library: site-saturation at positions 5, 18, 19, 20
measuredAttribute: shrunken log2 fold change
Field format: numeric only.

Answered examples (3):
| sequence | measuredOn | shrunken log2 fold change |
| --- | --- | --- |
| RRIRERPPRLPRPRPRPGILPRP | Escherichia coli TOP10 | -0.304 |
| RRIRTRPPRLPRPRPRPRKAPRP | Escherichia coli TOP10 | 0.326 |
| RRIRYRPPRLPRPRPRPHSQPRP | Escherichia coli TOP10 | -0.71 |

Problem: Entry RRIRQRPPRLPRPRPRPLGMPRP needs its shrunken log2 fold change filled in; supply it.
Solution: -0.218

Problem: Entry RRIRCRPPRLPRPRPRPTDEPRP needs its shrunken log2 fold change filled in; supply it.
Solution: 2.52

Problem: Entry RRIRGRPPRLPRPRPRPQHEPRP needs its shrunken log2 fold change filled in; supply it.
Solution: 0.0159

Problem: Entry RRIRRRPPRLPRPRPRPGDFPRP needs its shrunken log2 fold change filled in; supply it.
Solution: 0.464

Problem: Entry RRIRRRPPRLPRPRPRPKRWPRP needs its shrunken log2 fold change filled in; supply it.
Solution: 0.409

Problem: Entry RRIRKRPPRLPRPRPRPPSAPRP needs its shrunken log2 fold change filled in; supply it.
Solution: 0.798

Problem: Entry RRIRWRPPRLPRPRPRPKDNPRP needs its shrunken log2 fold change filled in; supply it.
Solution: -0.00672

Problem: Entry RRIRQRPPRLPRPRPRPWLIPRP needs its shrunken log2 fold change filled in; supply it.
Solution: -0.289

Problem: Entry RRIRWRPPRLPRPRPRPLKMPRP needs its shrunken log2 fold change filled in; supply it.
Solution: 0.234
